Recorded AC50, one value per entry.
Molecular target: DNA repair protein RAD52 homolog (Homo sapiens, UniProt P43351)
Sequence (P43351 whole entry): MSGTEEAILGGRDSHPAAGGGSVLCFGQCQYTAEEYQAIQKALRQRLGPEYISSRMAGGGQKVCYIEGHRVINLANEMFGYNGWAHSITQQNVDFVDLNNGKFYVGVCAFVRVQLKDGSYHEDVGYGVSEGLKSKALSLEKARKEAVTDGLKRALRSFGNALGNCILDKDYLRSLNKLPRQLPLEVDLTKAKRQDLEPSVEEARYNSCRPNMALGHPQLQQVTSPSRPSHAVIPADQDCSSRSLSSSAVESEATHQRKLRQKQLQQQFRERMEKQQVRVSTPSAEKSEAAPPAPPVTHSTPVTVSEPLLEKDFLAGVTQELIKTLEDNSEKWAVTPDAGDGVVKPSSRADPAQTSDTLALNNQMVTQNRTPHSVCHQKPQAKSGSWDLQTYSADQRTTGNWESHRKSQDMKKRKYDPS
Type: functional, biochemical
Active and inactive are the calls of the source.

Sample answers from the record:
• C/N=C(\C[N+](=O)[O-])NCCSCc1ccc(CN(C)C)o1 = 12.5 µM (active)
• CCC(/C=C1\Sc2ccc(OC)cc2N1CCO)=C\c1sc2ccc(OC)cc2[n+]1CCO = 1.77 µM (active)

Query: Note AC50 for the compound shown: c1ccc(CNc2c3ccccc3nc3ccccc23)cc1
Reply: 12.1 µM (active)

Query: Quick one: give measured AC50 for CCN1CCN(c2cc(C)c3cc(NC(=S)N4CCCCC4)ccc3n2)CC1
Reply: 14.1 µM (active)

Query: Supply recorded AC50 for CCCS(=O)(=O)Nc1ccc(Nc2c3ccccc3nc3ccccc23)c(OC)c1 here.
Reply: 3.15 µM (active)

Query: Provide one value: measured AC50 of CCN(CC)CCNC(=O)c1nn(-c2ccc(Cl)cc2)c2c1CCc1cc(OC)ccc1-2
Reply: 16.8 µM (active)

Query: Please report AC50 for the following compound: Cc1cccn2c(=O)c3cc(C(=O)NC(C)c4ccccc4)c(=N)n(CCCn4ccnc4)c3nc12 (configuration not stated)
Reply: 4.29 µM (active)

---

Reported AC50 values, Cytochrome P450 2D6 (Homo sapiens, UniProt P10635).

Previously resolved entries follow.
- CCCNc1c(F)c(F)c2c(C)c3ccccc3nc2c1F: 25.1 µM (inconclusive)
- N#Cc1cccc(NC(=O)N2CC3(CCN(C(=O)Oc4ccccc4)CC3)C2)c1: 39.8 µM (inconclusive)
- O=c1oc2cc(Oc3c([N+](=O)[O-])cc(C(F)(F)F)cc3[N+](=O)[O-])ccc2c2c1CCCC2: 11.2 µM (inconclusive)
- OCC/N=C1\CCCc2c1[nH]c1ccc(Br)cc21: 1 µM (inconclusive)
- CN1CCN(c2ccc([N+](=O)[O-])cc2NC(=O)c2ccccc2Cl)CC1: 17.8 µM (inconclusive)

Query: Output reported AC50 of the compound CC(C)[C@H](N)c1nnc(SC/C=C/c2ccccc2)o1 on Cytochrome P450 2D6 (Homo sapiens, UniProt P10635).
Sequence (P10635 whole entry): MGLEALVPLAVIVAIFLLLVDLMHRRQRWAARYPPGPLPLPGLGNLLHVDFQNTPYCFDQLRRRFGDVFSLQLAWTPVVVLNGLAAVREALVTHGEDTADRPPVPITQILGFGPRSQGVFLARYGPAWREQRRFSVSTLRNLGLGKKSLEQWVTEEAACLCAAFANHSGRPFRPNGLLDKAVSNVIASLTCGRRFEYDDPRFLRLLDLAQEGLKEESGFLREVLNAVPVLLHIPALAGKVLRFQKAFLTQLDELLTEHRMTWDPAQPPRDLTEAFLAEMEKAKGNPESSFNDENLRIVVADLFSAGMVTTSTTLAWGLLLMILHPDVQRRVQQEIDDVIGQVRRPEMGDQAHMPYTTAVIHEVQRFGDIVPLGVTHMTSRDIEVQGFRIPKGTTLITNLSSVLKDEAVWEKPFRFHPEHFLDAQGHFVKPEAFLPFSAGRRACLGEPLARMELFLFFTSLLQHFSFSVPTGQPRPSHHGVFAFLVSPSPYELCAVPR
Reply: 35.5 µM (inconclusive)

Query: Give AC50 only, for Cc1c(C(=O)N2CCCCCC2)nnn1-c1nonc1N , using Cytochrome P450 2D6 (Homo sapiens, UniProt P10635) data.
Reply: 17.8 µM (inconclusive)

Query: Using Cytochrome P450 2D6 (Homo sapiens, UniProt P10635) as the test system, report measured AC50 of CC(C)(C)C(=O)NC(Nc1cccc2cccnc12)C(Cl)(Cl)Cl (stereo not drawn) .
Reply: 15.8 µM (inconclusive)

Query: GET AC50 where system = Cytochrome P450 2D6 (Homo sapiens, UniProt P10635) and item = Cc1ccc(OCC(=O)N2CCN(c3ccc([N+](=O)[O-])c(N4CCOCC4)c3)CC2)cc1
Reply: 12.6 µM (inconclusive)

Query: State AC50 on Cytochrome P450 2D6 (Homo sapiens, UniProt P10635). Entry: Nc1nc(SC/C=C\c2ccccc2)c2nc[nH]c2n1
Reply: 3.16 µM (inconclusive)

Query: GET AC50 | system: Cytochrome P450 2D6 (Homo sapiens, UniProt P10635) | item: CN(C)c1ccc(/N=N\c2cccc3ccoc23)cc1;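 further: CYP2D6 member of a cytochrome P450 panel assay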
Reply: 3.16 µM (inconclusive)

Query: Please indicate recorded AC50 of CCCC[C@@H]1C[C@H]1C(NC(=O)c1cccnc1)c1ccc(Cl)cc1 (stereo partly drawn) measured with Cytochrome P450 2D6 (Homo sapiens, UniProt P10635).
Reply: 25.1 µM (inconclusive)

---

Quick record: AC50, Cytochrome P450 1A2 (Homo sapiens, UniProt P05177).

Past entries and their recorded results:
• CC1(C)CCC(C)(C)c2cc(C(=O)Nc3ccc(C(=O)O)cc3)ccc21 = 31.6 µM (inconclusive)
• OCC/N=C1\CCCc2c1[nH]c1ccc(Br)cc21 = 0.251 µM (inconclusive)
• CC#CCCCC(=O)Nc1ccc(C(=O)O)cc1 = 28.2 µM (inconclusive)
• COc1cccc(Cn2c(=O)c(-c3cn(C)c4ccccc34)nc3cnc(N4CCNCC4)nc32)c1 = 15.8 µM (inconclusive)
• Cc1c(C(=O)N2CCCCCC2)nnn1-c1nonc1N = 15.8 µM (inconclusive)
• O=C(CCNC(=O)Cn1cnc2ccccc2c1=O)NCC1COc2ccccc2O1 (stereo not drawn) = 0.01 µM (inconclusive)

Continue with the compound presented below.
Query: Give the measured AC50 for COC(=O)[C@H](C)[C@H]1C[C@]1(C)[C@H](NC(=O)OCc1ccccc1)c1ccccc1
Reply: 15.8 µM (inconclusive)

---

assay: inhibitors of intracellular T. cruzi replication, confirmation, NIH3T3 host cells, beta-gal luminescence (AID 2044); assay type: functional, cell-based;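 further: intracellular parasites grown in NIH/3T3 mouse fibroblasts as host cells; luminescent beta-galactosidase reporter signal from transgenic T. cruzi replicating inside host cells; inhibitors lower the luminescence signal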
The source made the active and inactive calls.
# EC50 annotations

Previously resolved entries follow.
- Cc1c(C(=O)N2CCN(Cc3ccc4c(c3)OCO4)CC2)sc2ncnc(N3CCN(c4ccccc4F)CC3)c12: 0.487 µM (active)
- CCOc1ccccc1NC(=O)C(=O)N/N=C/c1cc(Br)ccc1O: 1.02 µM (active)
- CCOc1ccc(NC(=O)CC2C(=O)N(C)C(=S)N2CCCc2ccccc2)cc1 (stereo not given): 2.4 µM (active)

Query: Tell me EC50 reported for COc1ccc(C)cc1Nc1n[n+](-c2ccccc2)c(-c2ccc(OC)c(OC)c2OC)s1
Reply: 0.215 µM (active)

Query: Using the record for CCN1CCN(c2cc(C)c3cc(NC(=S)N4CCCCC4)ccc3n2)CC1 , state its measured EC50.
Reply: 2.28 µM (active)

Query: Tell me its EC50 given COc1ccccc1C(NC(C)=O)c1cc(Cl)c2cccnc2c1O (stereo not given) as the entry.
Reply: 0.647 µM (active)

Query: Output measured EC50 for this item: O=C(c1ccc([N+](=O)[O-])o1)N1CCN(c2nc3c(Cl)cccc3s2)CC1
Reply: 0.254 µM (active)

Query: Please report the measured EC50 for O=C(O)CCCCCCCCc1cn(Cc2ccc(C(=O)c3ccccc3)cc2)nn1
Reply: > 60 µM (not active)

Query: Item COc1cnc(-c2ccccn2)nc1N(C)c1ccccc1 : provide EC50
Reply: 1.89 µM (active)

Query: Name the recorded EC50 of the compound listed here: CC(=O)N(C)Cc1ccc(C(=O)CCl)cc1
Reply: 2.51 µM (active)

---

test system: BJ; assay: cytotoxicity toward Ras-transformed BJeLR fibroblasts, dose response, cell-based, alamar blue fluorescence, cherrypicked samples (AID 2631); assay type: functional; conditions: Homo sapiens;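 further: confirmatory dose-response assay in RAS-dependent BJ fibroblasts engineered with TERT, LT and ST, with cytotoxicity read by fluorescence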
Active and inactive are the calls of the source.
Catalogue of EC50 readings, one per entry.

Example entries and their recorded answers appear below.
• CCOc1ccc2c(c1)C(C)=CC(C)(C)N2S(=O)(=O)c1ccc(NC(C)=O)cc1 = < 104 nM (active)
• O=C(CCl)N(CCCNC(=O)C(F)(F)F)c1ccc([N+](=O)[O-])cc1 = 995 nM (active)
• C(=N\Nc1nc2ccccc2[nH]1)/c1ccccn1 = 1990 nM (active)

API: the following record is the query input.
Query: Please report the measured EC50 for O=C(NCc1cccnc1)c1ccc(-c2cc3ccccc3oc2=O)cc1
Reply: 6490 nM (active)

---

target: Peroxisome proliferator-activated receptor gamma/Nuclear receptor coactivator 1 (Homo sapiens, UniProt P37231); assay: TR-FRET dose response biochemical High Throughput Screening assay for agonists of the steroid receptor coactivator 1 (SRC-1) recruitment by the peroxisome proliferator-activated receptor gamma (PPAR gamma): non-selective agonists. [Related pubchem assays (depositor defined):AID1300, AID1808, AID504735, AID631]; format: protein assay
Sequence (P37231 whole entry): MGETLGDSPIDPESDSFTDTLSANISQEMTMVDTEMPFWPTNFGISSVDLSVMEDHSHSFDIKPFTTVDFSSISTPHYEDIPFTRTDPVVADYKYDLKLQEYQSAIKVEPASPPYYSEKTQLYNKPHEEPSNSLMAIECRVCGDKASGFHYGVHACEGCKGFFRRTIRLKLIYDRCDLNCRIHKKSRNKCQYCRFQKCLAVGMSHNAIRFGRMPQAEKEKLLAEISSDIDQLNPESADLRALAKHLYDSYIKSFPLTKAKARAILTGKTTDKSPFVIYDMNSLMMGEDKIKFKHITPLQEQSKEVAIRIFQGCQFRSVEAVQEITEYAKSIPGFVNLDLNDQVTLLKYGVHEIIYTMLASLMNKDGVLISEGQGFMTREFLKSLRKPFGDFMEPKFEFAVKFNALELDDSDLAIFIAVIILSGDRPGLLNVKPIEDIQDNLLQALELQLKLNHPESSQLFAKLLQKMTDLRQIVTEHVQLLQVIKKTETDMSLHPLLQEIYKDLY
Sequence (Q15788 whole entry, further chain): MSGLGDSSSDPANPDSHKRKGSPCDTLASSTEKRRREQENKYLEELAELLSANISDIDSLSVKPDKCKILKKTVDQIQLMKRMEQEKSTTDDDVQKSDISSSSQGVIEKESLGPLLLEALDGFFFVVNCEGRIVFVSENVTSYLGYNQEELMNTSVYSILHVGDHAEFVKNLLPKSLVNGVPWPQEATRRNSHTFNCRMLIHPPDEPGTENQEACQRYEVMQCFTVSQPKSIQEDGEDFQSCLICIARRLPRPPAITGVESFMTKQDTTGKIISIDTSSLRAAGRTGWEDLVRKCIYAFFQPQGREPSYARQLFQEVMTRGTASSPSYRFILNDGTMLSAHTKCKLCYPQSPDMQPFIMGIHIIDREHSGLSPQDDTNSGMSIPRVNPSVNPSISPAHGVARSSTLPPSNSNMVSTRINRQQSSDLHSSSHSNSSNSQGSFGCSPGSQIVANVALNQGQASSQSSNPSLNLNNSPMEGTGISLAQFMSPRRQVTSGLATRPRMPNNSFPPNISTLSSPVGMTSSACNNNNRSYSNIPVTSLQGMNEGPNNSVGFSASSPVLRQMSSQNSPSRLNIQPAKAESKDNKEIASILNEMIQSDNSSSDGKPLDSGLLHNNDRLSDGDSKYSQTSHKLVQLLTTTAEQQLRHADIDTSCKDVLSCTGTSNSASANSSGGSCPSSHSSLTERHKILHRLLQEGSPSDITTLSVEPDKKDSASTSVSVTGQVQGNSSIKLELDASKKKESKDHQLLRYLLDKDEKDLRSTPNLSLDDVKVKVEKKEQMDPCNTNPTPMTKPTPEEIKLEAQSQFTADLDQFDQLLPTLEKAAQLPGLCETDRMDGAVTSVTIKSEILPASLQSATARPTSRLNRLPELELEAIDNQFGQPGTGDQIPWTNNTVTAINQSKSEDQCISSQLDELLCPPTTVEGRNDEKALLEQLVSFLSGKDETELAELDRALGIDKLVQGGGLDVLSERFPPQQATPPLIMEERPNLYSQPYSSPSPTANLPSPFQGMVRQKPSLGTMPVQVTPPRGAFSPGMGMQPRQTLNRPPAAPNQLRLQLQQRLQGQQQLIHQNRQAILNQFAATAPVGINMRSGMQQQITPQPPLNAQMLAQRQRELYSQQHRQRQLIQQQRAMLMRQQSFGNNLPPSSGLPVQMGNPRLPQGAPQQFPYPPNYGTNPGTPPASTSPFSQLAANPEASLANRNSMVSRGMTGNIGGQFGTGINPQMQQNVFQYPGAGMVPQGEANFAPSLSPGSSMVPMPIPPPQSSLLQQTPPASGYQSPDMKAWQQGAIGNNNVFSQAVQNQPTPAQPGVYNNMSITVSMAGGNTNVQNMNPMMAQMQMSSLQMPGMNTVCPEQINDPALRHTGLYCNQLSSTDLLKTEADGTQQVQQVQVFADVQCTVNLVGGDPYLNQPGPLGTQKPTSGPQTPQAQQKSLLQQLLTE
Calls of active or inactive are those of the source.
Pick from 1 (active), 0 (inactive) when you respond.

Please review the following examples before continuing.
• COCCCn1c(=S)[nH]c2sc3c(c2c1=O)CCCS3 = 0
• O=C(Cc1ccccc1)Nc1nnc(-c2ccco2)s1 = 0
• N#Cc1ccccc1CSc1ccc(-c2nc3ccccc3[nH]2)cn1 = 0
• CCN(CC)S(=O)(=O)c1ccc(C(=O)NCc2ccc3c(c2)cc(C)n3C)cc1 = 1
• COc1ccc2c3nc4ccccc4c-3c(O)oc2c1 = 1

Query: How did this test come out for COc1ccc(CNC(=O)CSc2cc(=O)n(C)c3ccccc23)cc1 ?
Reply: 0

Query: recorded result category for COc1ccc(C2=NN(C(=N)S)C(c3ccccc3)C2)cc1 (configuration not stated) in this test
Reply: 1
